experiment: Toxicity liver stage against HepG2, at 10uM; type: cell-based; set-up: test concentration 10 uM, cell line HepG2-A16-CD81EGFP; conditions: human, HepG2-A16-CD81EGFP cells; read-out: INHIBITION
Item-by-item account of cytotoxicity at 10 µM
Record the value in %, omitting the unit from your answer.

-- ask Requested read-out: cytotoxicity at 10 µM. Entry: Cc1oc(-c2ccco2)nc1CC(=O)N1CCC(CCO)C1 (stereo not drawn)
-- reply -2.02

-- ask Field entry: Cc1cc(N2CCN(C3CCSCC3)CC2)n2nc(C)c(C)c2n1
-- reply 0.0879

-- ask // repeat for CN(C)C(=O)N1CCN(c2ccc(Cl)nn2)C(=O)C1 and report
-- reply 9.1

-- ask Also, CS(=O)(=O)N1CC[C@H]2OCC[C@@]2(C(=O)NCC2CC2)C1 please.
-- reply -98.2

-- ask Then Cc1cnn(-c2cncc(C(N)=O)c2)c1 ?
-- reply 3.04

-- ask # repeat for Cc1nc(CN(C)C(=O)CNC(=O)c2ccc(C#N)cc2)cs1
-- reply 12.5
